# assayed.target: UniProtKB P31645
# Sequence (P31645 whole entry): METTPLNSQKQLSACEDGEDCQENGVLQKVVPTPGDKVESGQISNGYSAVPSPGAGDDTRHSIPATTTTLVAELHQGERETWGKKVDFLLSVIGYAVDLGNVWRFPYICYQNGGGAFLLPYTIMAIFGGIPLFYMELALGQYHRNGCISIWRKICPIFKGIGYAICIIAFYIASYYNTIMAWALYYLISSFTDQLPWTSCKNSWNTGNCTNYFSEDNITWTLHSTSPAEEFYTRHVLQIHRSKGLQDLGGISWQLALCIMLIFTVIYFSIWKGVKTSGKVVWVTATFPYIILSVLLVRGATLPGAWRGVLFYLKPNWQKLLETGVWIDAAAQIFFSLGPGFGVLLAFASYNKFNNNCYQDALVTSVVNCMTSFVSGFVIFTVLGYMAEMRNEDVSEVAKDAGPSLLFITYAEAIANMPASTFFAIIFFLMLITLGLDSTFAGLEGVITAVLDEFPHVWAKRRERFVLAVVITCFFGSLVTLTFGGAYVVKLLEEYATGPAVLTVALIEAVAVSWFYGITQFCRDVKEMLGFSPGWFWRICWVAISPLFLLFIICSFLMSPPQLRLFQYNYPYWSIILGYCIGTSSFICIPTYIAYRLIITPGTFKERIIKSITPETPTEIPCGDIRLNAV
// reported log10(Ki) for each item listed
Annotation: log10 of Ki, nM basis.

Some entries whose results are on file:
molecule="O=S(=O)(NC1CCN(CCOc2cccc3ccccc23)C1)c1ccc2ccccc2c1 (stereo not shown)" readout_kind=log10(Ki) value_reported=1.49
molecule="O=S(=O)(NC1CCN(CCCc2c[nH]c3ccc(F)cc23)C1)c1ccc(Cl)cc1 (stereo not shown)" readout_kind=log10(Ki) value_reported=-0.30

GET /value?item= Cc1cccc(S(=O)(=O)NC2CCN(CCCc3c[nH]c4ccc(F)cc34)C2)c1 (stereo not shown) &field=log10(Ki) returns 0.00

GET /value?item= O=S(=O)(NC1CCN(CCCc2c[nH]c3ccc(F)cc23)C1)c1ccc2ccccc2c1 (stereo not shown) &field=log10(Ki) returns -0.30

GET /value?item= O=S(=O)(NC1CCN(CCCc2c[nH]c3ccc(Cl)cc23)C1)c1cccc(F)c1 (stereo not shown) &field=log10(Ki) returns 0.11

GET /value?item= "O=S(=O)(NCC1CN(CCOc2cccc3ccccc23)C1)c1ccc2ccccc2c1" &field=log10(Ki) returns 1.23

GET /value?item= O=S(=O)(NC1CCN(CCCc2c[nH]c3ccc(F)cc23)C1)c1cccc2ccccc12 (stereo not shown) &field=log10(Ki) returns -0.15

GET /value?item= Cc1cccc(S(=O)(=O)NC2CCN(CCCc3c[nH]c4ccc(Cl)cc34)C2)c1 (stereo not shown) &field=log10(Ki) returns 0.04

GET /value?item= O=S(=O)(NC1CCN(CCCc2c[nH]c3ccc(Cl)cc23)C1)c1cccc(Cl)c1 (stereo not shown) &field=log10(Ki) returns 0.41

GET /value?item= O=S(=O)(NC1CCN(CCCc2c[nH]c3ccc(F)cc23)C1)c1ccc(F)cc1 (stereo not shown) &field=log10(Ki) returns 0.18
